Where these numbers come from: patent US20230250147A1

- subject.of.test: Monkey GLP-1R (Macaca fascicularis)
- Construct: expressed in transfected cells; host or cells: HEK-293
- Sequence (F8V479 24-463): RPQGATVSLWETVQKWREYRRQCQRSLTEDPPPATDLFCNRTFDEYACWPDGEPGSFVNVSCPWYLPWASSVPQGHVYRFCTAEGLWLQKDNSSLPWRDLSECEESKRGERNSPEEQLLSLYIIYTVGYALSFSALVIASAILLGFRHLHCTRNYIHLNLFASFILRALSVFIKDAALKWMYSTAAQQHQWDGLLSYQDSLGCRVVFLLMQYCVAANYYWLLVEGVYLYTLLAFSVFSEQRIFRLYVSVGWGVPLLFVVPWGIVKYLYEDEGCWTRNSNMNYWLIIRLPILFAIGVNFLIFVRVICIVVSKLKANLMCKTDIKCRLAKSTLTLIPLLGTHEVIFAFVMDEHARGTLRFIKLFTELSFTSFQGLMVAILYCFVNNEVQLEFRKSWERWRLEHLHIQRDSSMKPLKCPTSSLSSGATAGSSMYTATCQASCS
- assay.info: HTRF cAMP assay in HEK-293 cells, monkey GLP-1R
- Type: cell-based
No end group written: not given here.
assay.readout: EC50 (pM)
Please respond with the number in pM and leave the unit unwritten.

INPUT: Value lookup for EC50; key = GHGEGTFTSDKSKQLEEEAVRLFIEWLKAGGPKKIRYS-NH2 [compound 278]
OUTPUT: 5.74

---

- subject.of.test: Human GLP-1R (Homo sapiens, UniProt P43220)
- Construct: expressed in transfected cells; host or cells: HEK-293
- Sequence (P43220 24-463): as the sequence (F8V479 24-463) above, with N112S, S120F, G202S, V205L, F237L, R241W, V249I counted along it
- assay.info: HTRF cAMP assay in HEK-293 cells, human GLP-1R
- Format: cell-based
No end group written: not given here.
assay.readout: EC50 (pM)
Report the figure in pM without appending any unit label.

INPUT: Item GHGEGTFTSDKSKQLEEEAVRLFIEWLKAGGPKKIRYS-NH2 [compound 278] has what recorded EC50?
OUTPUT: 10.5

---

- subject.of.test: Mouse GLP-1R (Mus musculus)
- Construct: expressed in transfected cells; host or cells: HEK-293
- Sequence (O35659 22-463): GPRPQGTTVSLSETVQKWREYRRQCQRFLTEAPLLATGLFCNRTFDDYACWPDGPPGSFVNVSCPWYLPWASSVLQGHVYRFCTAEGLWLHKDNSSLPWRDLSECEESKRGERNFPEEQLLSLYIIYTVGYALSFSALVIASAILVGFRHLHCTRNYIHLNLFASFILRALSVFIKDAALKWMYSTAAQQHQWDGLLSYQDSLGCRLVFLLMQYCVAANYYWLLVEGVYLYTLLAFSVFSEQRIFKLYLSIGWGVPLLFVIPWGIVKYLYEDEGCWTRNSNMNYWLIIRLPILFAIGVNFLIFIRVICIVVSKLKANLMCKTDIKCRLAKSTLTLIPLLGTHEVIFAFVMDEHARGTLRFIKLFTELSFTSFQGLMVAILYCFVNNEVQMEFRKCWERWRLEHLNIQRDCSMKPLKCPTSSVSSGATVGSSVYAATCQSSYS
- assay.info: HTRF cAMP assay in HEK-293 cells, mouse GLP-1R
- Format: cell-based
No end group written: not given here.
assay.readout: EC50 (pM)
Lab book: enter the figure in pM, no units written.

INPUT: // returns reported EC50 for input GHGEGTFTSDKSKQLEEEAVRLFIEWLKAGGPKKIRYS-NH2 [compound 278]
OUTPUT: 7.65
